Provenance of the data: PubChem BioAssay

experimentNotes: NIH:OVCAR-3 ovarian cancer cell cytotoxicity, dose response, PAX8 inhibitor project, plate reader, dry powder samples (AID 743044)
studyConditions: NIH:OVCAR-3 ovarian cancer cell viability; at 35 µM, stronger effect = lower value unless noted
Potency and affinity values are given separately. Records with an inconclusive call do not appear. Activity calls are given as the source filed them. How the calls were made is not given here.
readout: max activity

Cc1ccc(S(=O)(=O)N(C)C[C@@H]2OCCCC[C@H](C)Oc3ccc(NS(=O)(=O)c4cccs4)cc3C(=O)N([C@H](C)CO)C[C@H]2C)cc1	5.96% (inactive)
C[C@H](CO)N1C[C@H](C)[C@@H](CN(C)Cc2ccc(Cl)c(Cl)c2)OCCCC[C@H](C)Oc2ccc(NS(=O)(=O)c3ccc(Cl)cc3)cc2C1=O	-25.3% (inactive)

The molecule "COc1ccc2c3c(n(C)c2c1)[C@H](CO)N(C(=O)Nc1ccc(F)cc1)CC31CCN(S(=O)(=O)c2cccc(C)c2)CC1" showed max activity equal to -14.5% (inactive)

The molecule "COc1ccc(CN(C)C[C@@H]2OCCCC[C@H](C)Oc3ccc(NC(=O)Nc4cccc5ccccc45)cc3C(=O)N([C@H](C)CO)C[C@H]2C)cc1" showed max activity equal to -16.9% (inactive)

The molecule "O=S(=O)(c1ccccc1F)N1CC[C@@H]2[C@H](CO)Nc3ccc(C4=CCCCC4)cc3[C@@H]21" showed max activity equal to 8.04% (inactive)

The molecule "O=C(C[C@@H]1CC[C@@H]2[C@H](COC[C@H](O)CN2S(=O)(=O)c2cccc(Cl)c2)O1)Nc1ccc(-c2ccccc2)cc1" showed max activity equal to -18.5% (inactive)

The molecule "Cc1noc(C)c1S(=O)(=O)Nc1ccc2c(c1)C(=O)N([C@@H](C)CO)C[C@H](C)[C@H](CN(C)C(=O)Nc1ccc(C(F)(F)F)cc1)OCCCC[C@H](C)O2" showed max activity equal to -38.6% (inactive)
